Consider the following molecules; for each one, report its fold induction at 1 µM.
# Tested on: primary human total T-cells
# MEASUREMENT_DESCRIPTION: Primary human total T-cell activation: CD25 surface staining, Biological Example 9
# Format: cell-based
# CONDITION_NOTES: anti-CD3 alone, inhibitor 1 μM, 48 hours, fold change over baseline, Table 9-1, read-out: CD25 staining CD3 1 μM

Input: Supply measured fold induction at 1 µM of CCOc1cc(C2(Cc3nncn3C)COC2)cc(N2Cc3c(cc(CN4CCC[C@H](C)C4)cc3C(F)(F)F)C2=O)n1 [Compound 39] in your reply.
Output: > 1.14

Input: Supply measured fold induction at 1 µM of Cn1cnnc1C(F)(F)[C@](C)(F)c1cccc(N2Cc3c(cc(CN4CC[C@H](F)C4)cc3C(F)(F)F)C2=O)c1 [Compound 57] in your reply.
Output: > 1.14

Input: Supply measured fold induction at 1 µM of C[C@@H](c1cc2c(c(C(F)(F)F)c1)CN(c1cccc(C3(Cc4nncn4C)COC3)c1)C2=O)N1CC[C@H](F)C1 [Compound 55] in your reply.
Output: > 1.14

Input: Supply measured fold induction at 1 µM of CCNc1cc(C2(Cc3nncn3C)COC2)cc(N2Cc3c(cc(CN4CCC[C@H](C)C4)cc3C(F)(F)F)C2=O)n1 [Compound 44] in your reply.
Output: 1.05 to 1.14

Input: Supply measured fold induction at 1 µM of C[C@@H](c1cc2c(c(C(F)(F)F)c1)CN(c1cccc(C3(Cc4nncn4C)COC3)c1)C2=O)N1CCC(F)CC1 [Compound 61] in your reply.
Output: > 1.14

Input: Supply measured fold induction at 1 µM of C[C@@H](c1cc2c(c(C(F)(F)F)c1)CN(c1cccc(C3([C@@H](F)c4nncn4C)COC3)c1)C2=O)N1CCC2(CC2)C1 [Compound 60] in your reply.
Output: > 1.14

Input: Supply measured fold induction at 1 µM of C[C@H](c1cc2c(c(C(F)(F)F)c1)CN(c1cccc(C3(Cc4nncn4C)COC3)c1)C2=O)N1CC[C@H](F)C1 [Compound 56] in your reply.
Output: > 1.14

Input: Supply measured fold induction at 1 µM of C[C@@H]1CN(Cc2cc3c(c(C(F)(F)F)c2)CN(c2cccc(C4(Cc5nncn5C)COC4)c2)C3=O)CCC1(F)F [Compound 8] in your reply.
Output: > 1.14

Input: Supply measured fold induction at 1 µM of Cc1cc(C(=O)Nc2cccc(C3(Cc4nncn4C)COC3)c2)nc(C2CC2)n1 [Compound 53] in your reply.
Output: > 1.14

Input: Supply measured fold induction at 1 µM of Cn1cnnc1C(F)(F)[C@](C)(F)c1cccc(N2Cc3c(cc(CN4CCC(F)(F)C4)cc3C(F)(F)F)C2=O)c1 [Compound 58] in your reply.
Output: < 1.04

Input: Supply measured fold induction at 1 µM of C[C@@H]1CN(Cc2cc(C(=O)Nc3cccc(C4(Cc5nncn5C)COC4)c3)nc(C3CC3)c2)CCC1(F)F [Compound 32] in your reply.
Output: > 1.14

Input: Supply measured fold induction at 1 µM of CCOc1cc(C2(Cc3nncn3C)COC2)cc(N2Cc3c(cc(CN4CCC(F)(F)[C@H](C)C4)cc3C(F)(F)F)C2=O)n1 [Compound 28] in your reply.
Output: 1.05 to 1.14

Input: Supply measured fold induction at 1 µM of C[C@@H]1[C@@H](c2nncn2C)[C@H]1c1cccc(N2Cc3c(cccc3C(F)(F)F)C2=O)c1 [Compound 54] in your reply.
Output: > 1.14

Input: Supply measured fold induction at 1 µM of C[C@@H]1C[C@H](C)CN(Cc2cc3c(c(C(F)(F)F)c2)CN(c2cccc(C4(Cc5nncn5C)COC4)c2)C3=O)C1 [Compound 2] in your reply.
Output: 1.05 to 1.14

Input: Supply measured fold induction at 1 µM of C[C@H]1CCCN(Cc2cc3c(c(C(F)(F)F)c2)CN(c2cccc(C4(Cc5nncn5C)COC4)c2)C3=O)C1 [Compound 1] in your reply.
Output: > 1.14

Input: Supply measured fold induction at 1 µM of Cn1cnnc1CC1(c2cccc(N3Cc4c(cc(CN5CCC6(CC6)C5)cc4C(F)(F)F)C3=O)c2)COC1 [Compound 59] in your reply.
Output: > 1.14
